species on record: Rattus norvegicus; experiment: Open TG-GATES - Regimen: Daily Repeat; type: toxicity, organism-based, Sprague-Dawley; design: regimen Daily Repeat, gender Male, age 6 weeks; conditions: in vivo, po, 300 mg/kg, 72 h, tissue Plasma, route gavage, dose level Middle, time 3 day
RECORDED_METRIC: ALT (IU/L)
Quick reminder: number only, in IU/L, skip the unit.

These solved cases illustrate the format of a correct answer.
CN/C(=N/CCSCc1nc[nH]c1C)NC#N : 37.6
Cc1nnc2n1-c1ccc(Cl)cc1C(c1ccccc1Cl)=NC2 : 53.4
COC(=O)C1=C(C)NC(C)=C(C(=O)OC)C1c1ccccc1[N+](=O)[O-] : 48.2
O=C(OC[C@H]1O[C@@H](OC(=O)c2cc(O)c(O)c(OC(=O)c3cc(O)c(O)c(O)c3)c2)[C@H](OC(=O)c2cc(O)c(O)c(OC(=O)c3cc(O)c(O)c(O)c3)c2)[C@@H](OC(=O)c2cc(O)c(O)c(OC(=O)c3cc(O)c(O)c(O)c3)c2)[C@@H]1OC(=O)c1cc(O)c(O)c(OC(=O)c2cc(O)c(O)c(O)c2)c1)c1cc(O)c(O)c(OC(=O)c2cc(O)c(O)c(O)c2)c1 : 35
CNC(=C[N+](=O)[O-])NCCSCc1ccc(CN(C)C)o1 : 43.4

Let us move to another entry and its ALT.
query: Tell me ALT reported for `CCOc1ccc(NC(C)=O)cc1`
result: 39.2

Reference for the values: ChEMBL document CHEMBL3885861
